This listing pairs compounds with measured % of full length SNAP-25, mES-MNs pre intoxication.
target: BoNT/A holotoxin (Clostridium botulinum, UniProt P0DPI1); test: cell-based; details: 10 μM
Sequence (P0DPI1 2-448 limits assumed): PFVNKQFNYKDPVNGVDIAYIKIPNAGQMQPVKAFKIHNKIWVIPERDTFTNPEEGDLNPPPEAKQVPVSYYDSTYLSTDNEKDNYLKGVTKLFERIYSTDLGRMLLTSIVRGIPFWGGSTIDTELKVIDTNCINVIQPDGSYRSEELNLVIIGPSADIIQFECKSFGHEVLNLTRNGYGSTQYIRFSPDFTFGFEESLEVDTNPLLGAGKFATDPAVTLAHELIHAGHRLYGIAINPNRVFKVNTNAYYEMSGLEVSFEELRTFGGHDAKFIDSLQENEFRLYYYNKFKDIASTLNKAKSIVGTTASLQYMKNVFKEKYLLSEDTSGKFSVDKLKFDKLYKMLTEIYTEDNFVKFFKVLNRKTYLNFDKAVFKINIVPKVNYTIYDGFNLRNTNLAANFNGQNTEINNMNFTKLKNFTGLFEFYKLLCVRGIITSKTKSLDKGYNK

Consider the reported % of full length SNAP-25, mES-MNs pre intoxication for these compounds:
>>> recorded_result("CC(CCN(C)CC12CC3CC(CC(C3)C1)C2)Nc1ccnc2cc(Cl)ccc12 (stereo not shown)")
"63; 72%"
>>> recorded_result("N#Cc1ccc2scc(-c3ccc(CNCCCCCCNc4ccnc5ccccc45)cc3)c2c1")
"36; 43%"
>>> recorded_result("N#Cc1ccc2scc(-c3ccc(CNCCCCNc4ccnc5ccccc45)cc3)c2c1")
"21; 26%"

Which % of full length SNAP-25, mES-MNs pre intoxication value belongs to CC(=O)O[C@H]1C[C@H]2[C@@H]([C@H](OC(C)=O)C[C@@H]3C[C@H](N)CC[C@@]32C)[C@@H]2CC[C@H]([C@H](C)CCCNCCCCNc3ccnc4ccccc34)[C@@]12C ?
28; 67%

What about this compound? CC(CCNCC12CC3CC(CC(C3)C1)C2)Nc1c(F)cnc2ccccc12 (stereo not shown)
24; 23%

Try this compound too: CC(=O)O[C@H]1C[C@H]2[C@@H]([C@H](OC(C)=O)C[C@@H]3C[C@H](N)CC[C@@]32C)[C@@H]2CC[C@H]([C@H](C)CCCN(C)CCCCNc3ccnc4ccccc34)[C@@]12C
70; 69%

Input CC(CCNc1ccnc2cc(Cl)ccc12)NCC12CC3CC(CC(C3)C1)C2 (stereo not shown)
29; 30%
